- Tested on: CASK;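 further: KINOMEscan kinase panel screen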
- experimental context: concentration: 1 μM, replicates: in singlicate; n = 1
# reported %Inh; entries follow
endpoint: %Inh (%)

INSERT INTO results (record_smiles, assay_system, reported_result) VALUES
  ('CC(=O)Nc1nc2cnc(Nc3cc(NC(=O)c4cccc(CCC#N)c4)ccc3C)nc2s1', 'CASK', 10),
  ('COc1ccc(Nc2nccc(-c3cccc(NC(=O)c4cc5cc(F)ccc5[nH]4)c3)n2)cc1', 'CASK', 14),
  ('COc1ccccc1CNC(=O)c1cc(C(=O)c2ccccc2C)c[nH]1', 'CASK', 12),
  ('Cc1c(O)cccc1Nc1ccnc2ccc(C(F)(F)F)cc12.Cl', 'CASK', 0),
  ('CC(C)(C)c1ccc(C(=O)Nc2cn3cc(-c4cccnc4)ccc3n2)cc1', 'CASK', 0),
  ('Cc1cccc(-c2cc(Nc3ccncc3)c3ccccc3n2)n1', 'CASK', 0),
  ('Nc1ncnc2[nH]c(-c3ccccc3)nc12', 'CASK', 15),
  ('Cc1cccc(-c2nc(Nc3cccc(C(N)=O)c3)c3ccccc3n2)n1', 'CASK', 30),
  ('CCn1c(-c2cccnc2O)nc2cnccc21', 'CASK', 0),
  ('Cc1ccc(NC(=O)Nc2cccc(Cl)c2)cc1-c1ccc(C(=O)Nc2ccncc2)cc1', 'CASK', 5),
  ('Cc1c(Cn2ccn3c(=O)cc(N4CCOCC4)nc23)cccc1C(F)(F)F', 'CASK', 14),
  ('O=C(Nc1n[nH]c2nc(-c3nccs3)c(Br)cc12)C1CC1', 'CASK', 42);
